# System: rabbit aorta rings
# experiment_description: Vasorelaxant action in vitro (phenylephrine-contracted rabbit aorta rings)
# assay_conditions: Oryctolagus cuniculus; concentration reducing the phenylephrine-induced contraction of rabbit aorta rings by 50%; DMSO 0.1%
quantity_measured: IC50 (nM)

I = CC1(C)C(=O)Nc2nc(-c3nn(Cc4ccccc4F)c4ncc(F)cc34)nc(N)c21
II = CC1(C)C(=O)Nc2nc(-c3nn(Cc4ccccc4F)c4ncccc34)nc(N)c21
When their IC50 values are compared, which is larger, I or II ? Mark your answer with the label of the selected entry. II
